- testedTarget: canine IL-4RA (construct not given) (canine)
- measurementNotes: SPR, IL-4RA immobilised, periplasmic Fab
Values of koff greater than or equal to 0.0001 s⁻¹ map to y; values below map to n.

Some solved entries appear below for comparison.
binder="FJ2246MP05G01 (Fab, V domains shown) VH: EVQLVESGGDLVKPGGSLRLSCVASGFPFRDFAMTWVRQAPGKGLQWVSLISGSGGKTYYADAVKGRFTISRDNAKNTLYLQMNSLRAEDTAVYYCAVDRLTKTIRPQYYGLWVWGQGTLVTVSS VL: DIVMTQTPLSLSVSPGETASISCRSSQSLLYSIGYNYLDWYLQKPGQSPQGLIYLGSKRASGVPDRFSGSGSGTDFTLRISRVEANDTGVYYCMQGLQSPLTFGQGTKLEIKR" classname=y
binder="FJ2246MP10A09 (Fab, V domains shown) VH: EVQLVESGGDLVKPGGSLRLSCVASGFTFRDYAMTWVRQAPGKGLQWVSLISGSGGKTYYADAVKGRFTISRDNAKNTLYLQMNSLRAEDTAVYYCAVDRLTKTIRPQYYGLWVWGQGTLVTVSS VL: DIVMTQTPLSLSVSPGETASISCRSSQSLLYSIGYNYLDWYLQKPGQSPQGLIYLGSKRASGVPDRFSGSGSGTDFTLRISRVEAEDTGVYYCMQGLHSPLSFGQGTKLEIK" classname=n
binder="FJ2246MP06C01 (Fab, V domains shown) VH: EVQLVESGGDLVKPGGSLRLSCVASGFTFRDYAMTWVRQAPGKGLQWVSLINGNGGKTYYADAVKGRFTISRDNAKNTLYLQMNSLRAEDTAVYYCAVDRLTKTIRPQYYGLWVWGQGTLVTVSS VL: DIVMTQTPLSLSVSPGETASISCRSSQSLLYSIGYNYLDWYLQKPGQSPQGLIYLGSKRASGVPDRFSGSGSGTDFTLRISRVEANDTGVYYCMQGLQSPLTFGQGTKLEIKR" classname=y
binder="FJ2246MP05F12 (Fab, V domains shown) VH: EVQLVESGGDLVKPGGSLRLSCVASGFPFRDYAMTWVRQAPGKGLQWVSLINGSGGKTYYADAVKGRFTISRDNAKNTLYLQMNSLRAEDTAVYYCAVDRLTKTIRPQYYGLWVWGQGTLVTVSS VL: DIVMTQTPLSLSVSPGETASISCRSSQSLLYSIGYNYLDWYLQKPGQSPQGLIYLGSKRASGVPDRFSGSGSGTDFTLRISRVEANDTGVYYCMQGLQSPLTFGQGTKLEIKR" classname=n

Now examine the next entry.
Task: API: above_or_equal(metric=koff, cutoff=0.0001 s⁻¹) for item FJ2246MP06G06 (Parental Fab of TB640_005) (Fab, V domains shown) VH: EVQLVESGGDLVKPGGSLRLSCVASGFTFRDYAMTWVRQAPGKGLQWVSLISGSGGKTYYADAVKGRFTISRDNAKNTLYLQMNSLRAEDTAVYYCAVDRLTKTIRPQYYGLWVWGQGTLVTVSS VL: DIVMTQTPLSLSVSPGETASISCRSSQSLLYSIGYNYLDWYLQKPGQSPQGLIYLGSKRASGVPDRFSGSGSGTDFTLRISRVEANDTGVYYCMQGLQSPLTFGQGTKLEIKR
Output: y
